- Assayed System: Fuc(a1-4)GlcNAc
- Experimental Protocol: glycan array binding signal (z-score within array); higher = stronger binding
- Details: glycan notation: IUPAC condensed, linker removed
About 410 targets per protein were measured; listed, in parts, are those with the strongest signals and a random draw of the rest.
Measurement Type: glycan array binding signal (z-score)
Give a plain numeric answer without units written out.

Fill blank: measured glycan array binding signal (z-score) of the binder SJCP3842 (Schistosoma japonicum) (protein) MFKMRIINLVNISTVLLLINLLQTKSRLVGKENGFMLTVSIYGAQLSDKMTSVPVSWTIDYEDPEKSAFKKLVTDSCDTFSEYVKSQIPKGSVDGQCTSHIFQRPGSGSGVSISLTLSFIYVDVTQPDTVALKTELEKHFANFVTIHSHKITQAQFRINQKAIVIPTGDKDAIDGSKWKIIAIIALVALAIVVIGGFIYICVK is ____. 4.44

Fill blank: measured glycan array binding signal (z-score) of the binder HBHA-Rv (Mycobacterium tuberculosum), P0A5P6 (protein) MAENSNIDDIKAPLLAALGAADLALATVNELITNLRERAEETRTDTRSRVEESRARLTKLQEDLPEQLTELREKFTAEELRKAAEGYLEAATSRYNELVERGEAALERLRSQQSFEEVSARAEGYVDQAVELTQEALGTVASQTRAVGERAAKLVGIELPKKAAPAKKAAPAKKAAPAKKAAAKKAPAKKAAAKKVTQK is ____. 20

Fill blank: measured glycan array binding signal (z-score) of the binder Mg1lysM (Mycosphaerella graminicola) (protein) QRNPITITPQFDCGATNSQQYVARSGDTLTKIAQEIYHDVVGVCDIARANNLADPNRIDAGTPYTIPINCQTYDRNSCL is ____. -0.078

Fill blank: measured glycan array binding signal (z-score) of the binder Aap arpt (Staphylococcus epidermidis) (protein) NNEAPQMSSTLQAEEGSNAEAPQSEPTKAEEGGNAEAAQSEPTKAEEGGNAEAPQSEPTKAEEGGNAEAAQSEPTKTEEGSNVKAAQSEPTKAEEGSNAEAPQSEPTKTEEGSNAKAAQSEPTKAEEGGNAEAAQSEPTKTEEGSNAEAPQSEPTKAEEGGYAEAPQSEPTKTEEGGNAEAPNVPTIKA is ____. 0.688

Fill blank: measured glycan array binding signal (z-score) of the binder Epf (Streptococcus pyogenes) (protein) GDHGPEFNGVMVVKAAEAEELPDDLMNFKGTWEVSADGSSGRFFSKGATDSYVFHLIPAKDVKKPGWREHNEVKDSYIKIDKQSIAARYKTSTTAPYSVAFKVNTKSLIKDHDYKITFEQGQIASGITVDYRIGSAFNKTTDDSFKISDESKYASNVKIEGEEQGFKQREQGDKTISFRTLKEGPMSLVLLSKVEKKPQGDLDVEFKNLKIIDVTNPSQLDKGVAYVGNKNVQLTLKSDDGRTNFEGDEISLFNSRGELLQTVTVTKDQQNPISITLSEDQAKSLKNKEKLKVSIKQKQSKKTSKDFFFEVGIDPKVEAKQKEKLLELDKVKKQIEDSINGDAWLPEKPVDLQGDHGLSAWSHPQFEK is ____. -0.354

Fill blank: measured glycan array binding signal (z-score) of the binder SefD (Salmonella enterica), Q9L6K6 (protein) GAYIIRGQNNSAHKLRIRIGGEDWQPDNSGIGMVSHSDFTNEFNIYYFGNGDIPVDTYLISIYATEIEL is ____. 2.37
